subjectOfTest: TYK2 (Homo sapiens)
Sequence (P29597 whole entry): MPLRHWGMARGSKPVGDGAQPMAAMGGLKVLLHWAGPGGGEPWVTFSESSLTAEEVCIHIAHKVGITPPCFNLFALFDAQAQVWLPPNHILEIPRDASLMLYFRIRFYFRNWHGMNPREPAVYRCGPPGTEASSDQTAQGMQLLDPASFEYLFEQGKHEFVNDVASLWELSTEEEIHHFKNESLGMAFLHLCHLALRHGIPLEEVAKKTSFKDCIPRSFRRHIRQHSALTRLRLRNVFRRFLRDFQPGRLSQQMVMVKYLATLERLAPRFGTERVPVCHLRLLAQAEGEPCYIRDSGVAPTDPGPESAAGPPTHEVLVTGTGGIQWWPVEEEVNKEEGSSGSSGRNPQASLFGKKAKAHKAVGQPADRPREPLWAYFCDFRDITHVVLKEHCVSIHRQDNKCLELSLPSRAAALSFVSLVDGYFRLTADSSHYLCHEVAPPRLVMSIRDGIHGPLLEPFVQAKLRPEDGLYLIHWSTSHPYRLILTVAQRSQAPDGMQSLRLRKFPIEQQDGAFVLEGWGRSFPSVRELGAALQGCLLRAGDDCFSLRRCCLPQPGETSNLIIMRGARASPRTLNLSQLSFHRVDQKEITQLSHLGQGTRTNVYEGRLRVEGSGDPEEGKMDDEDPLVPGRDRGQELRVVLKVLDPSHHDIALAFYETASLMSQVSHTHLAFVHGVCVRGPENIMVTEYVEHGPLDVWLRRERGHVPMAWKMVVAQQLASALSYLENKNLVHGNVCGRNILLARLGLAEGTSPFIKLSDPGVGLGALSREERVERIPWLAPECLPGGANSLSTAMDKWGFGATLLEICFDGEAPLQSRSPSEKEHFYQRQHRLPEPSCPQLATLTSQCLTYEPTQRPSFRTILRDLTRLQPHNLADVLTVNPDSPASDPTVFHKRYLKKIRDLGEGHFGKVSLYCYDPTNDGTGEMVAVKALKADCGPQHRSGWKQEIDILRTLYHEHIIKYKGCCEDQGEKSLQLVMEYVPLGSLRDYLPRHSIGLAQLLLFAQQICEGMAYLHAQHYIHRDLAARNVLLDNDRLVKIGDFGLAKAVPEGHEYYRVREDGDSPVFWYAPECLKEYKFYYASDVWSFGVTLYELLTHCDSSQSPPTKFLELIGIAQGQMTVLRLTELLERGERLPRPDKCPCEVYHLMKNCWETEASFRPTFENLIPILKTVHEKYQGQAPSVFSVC
pIC50: −log10 of the molar value.
propertyName: pIC50

> print(dat)
                                querysmiles  propertyname  observedvalue
1  Cc1cc(Nc2nc(N[C@@H]3C[C@H]4CC[C@@H](C3)N4C(=O)c3ccncc3)nc3ccccc23)n[nH]1         pIC50           8.00
2  Cc1cc(Nc2nc(N(C)[C@@H]3C[C@H]4CCC[C@@H](C3)N4S(=O)(=O)N3CC(C#N)C3)nc3sccc23)n[nH]1         pIC50           9.66
3  Cc1cc(Nc2nc(N[C@@H]3C[C@H]4CC[C@@H](C3)N4S(=O)(=O)N3CC(C#N)C3)nc3sccc23)n[nH]1         pIC50           9.49
4  Cc1cc(Nc2nc(N[C@@H]3C[C@H]4CC[C@@H](C3)N4CCC#N)nc3c(C)cccc23)n[nH]1         pIC50           8.63
5  CN(c1nc(Nc2cc(CO)[nH]n2)c2ccsc2n1)[C@@H]1C[C@H]2CCC[C@@H](C1)N2S(=O)(=O)N1CC(C#N)C1         pIC50           9.38
6  Cc1cc2nc(N[C@@H]3C[C@H]4CCC[C@@H](C3)N4CCC#N)nc(Nc3cc(CO)[nH]n3)c2s1         pIC50           9.64

The reported numbers originate from patent US20230043863A1.
